Exercise: state measured inhibition for each of the compounds provided.
# test-system: DNA topoisomerase 2-alpha (Homo sapiens) (UniProt P11388)
# Sequence (P11388 whole entry): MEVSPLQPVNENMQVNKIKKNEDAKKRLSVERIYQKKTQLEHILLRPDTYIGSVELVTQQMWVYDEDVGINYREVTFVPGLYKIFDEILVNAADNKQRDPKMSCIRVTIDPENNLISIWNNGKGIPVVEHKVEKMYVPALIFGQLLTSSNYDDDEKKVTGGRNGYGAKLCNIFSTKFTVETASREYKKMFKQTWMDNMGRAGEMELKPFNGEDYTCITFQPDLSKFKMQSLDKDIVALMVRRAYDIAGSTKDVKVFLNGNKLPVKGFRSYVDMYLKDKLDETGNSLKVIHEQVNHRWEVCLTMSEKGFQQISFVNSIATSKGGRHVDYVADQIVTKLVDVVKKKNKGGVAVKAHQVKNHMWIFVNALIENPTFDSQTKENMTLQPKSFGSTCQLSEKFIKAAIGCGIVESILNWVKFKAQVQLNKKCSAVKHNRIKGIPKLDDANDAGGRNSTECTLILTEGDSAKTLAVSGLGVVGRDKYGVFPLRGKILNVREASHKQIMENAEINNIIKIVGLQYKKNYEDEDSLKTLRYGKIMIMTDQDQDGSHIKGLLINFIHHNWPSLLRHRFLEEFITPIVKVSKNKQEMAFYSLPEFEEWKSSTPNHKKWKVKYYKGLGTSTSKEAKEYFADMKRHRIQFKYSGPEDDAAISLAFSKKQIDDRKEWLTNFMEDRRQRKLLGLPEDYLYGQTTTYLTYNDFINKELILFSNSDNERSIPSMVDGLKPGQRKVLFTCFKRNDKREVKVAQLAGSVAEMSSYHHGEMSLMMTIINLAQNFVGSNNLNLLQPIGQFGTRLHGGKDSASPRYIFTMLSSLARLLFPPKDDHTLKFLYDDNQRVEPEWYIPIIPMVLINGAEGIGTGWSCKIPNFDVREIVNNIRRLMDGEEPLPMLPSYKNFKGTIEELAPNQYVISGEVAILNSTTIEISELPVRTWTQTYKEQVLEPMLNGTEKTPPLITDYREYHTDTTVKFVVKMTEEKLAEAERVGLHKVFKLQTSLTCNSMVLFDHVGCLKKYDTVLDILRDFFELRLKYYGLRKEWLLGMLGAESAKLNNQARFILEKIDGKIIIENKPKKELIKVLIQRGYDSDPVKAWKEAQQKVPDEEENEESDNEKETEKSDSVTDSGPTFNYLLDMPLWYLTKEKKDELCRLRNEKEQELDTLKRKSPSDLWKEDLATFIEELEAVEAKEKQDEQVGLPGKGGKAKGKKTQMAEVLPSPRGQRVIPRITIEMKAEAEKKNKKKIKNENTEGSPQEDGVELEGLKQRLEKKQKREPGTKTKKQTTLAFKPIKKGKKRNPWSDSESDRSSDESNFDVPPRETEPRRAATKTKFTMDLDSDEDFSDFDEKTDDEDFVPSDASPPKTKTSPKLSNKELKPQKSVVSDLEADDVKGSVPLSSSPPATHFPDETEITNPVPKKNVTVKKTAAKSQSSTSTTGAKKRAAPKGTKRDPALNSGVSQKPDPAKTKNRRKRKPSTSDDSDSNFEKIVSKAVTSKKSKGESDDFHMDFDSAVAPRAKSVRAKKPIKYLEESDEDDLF
# assay-details: Inhibition of human DNA topoisomerase 2 assessed as bacteriophage P4 DNA unknotting at 100 uM after 30 mins by agarose gel electrophoresis
Give a bare numeral; the unit % is implied.

Item under review: C=CCN[C@@H]1c2cc3c(cc2[C@@H](c2cc(OC)c(O)c(OC)c2)[C@H]2C(=O)OC[C@@H]21)OCO3 . Reported inhibition?
75

So what's the measured inhibition for this one? COc1cc([C@@H]2c3cc4c(cc3[C@@H](N)[C@H]3COC(=O)[C@H]23)OCO4)cc(OC)c1O
50

Fill in: inhibition of COc1cc([C@@H]2c3cc4c(cc3[C@H](N)[C@H]3COC(=O)[C@H]23)OCO4)cc(OC)c1O is ___
25

Quick one: inhibition for CCCN[C@@H]1c2cc3c(cc2[C@@H](c2cc(OC)c(O)c(OC)c2)[C@H]2C(=O)OC[C@@H]21)OCO3 ?
50

Could you tell me which inhibition is on file for COCCN[C@@H]1c2cc3c(cc2[C@@H](c2cc(OC)c(O)c(OC)c2)[C@H]2C(=O)OC[C@@H]21)OCO3 ?
75

Dear colleague, I am looking for the recorded inhibition of the following compound: COc1cc([C@@H]2c3cc4c(cc3[C@@H](O)[C@H]3COC(=O)[C@H]23)OCO4)cc(OC)c1O [4'-DEMETHYLEPIPODOPHYLLOTOXIN]
50

Given the entry COc1cc([C@@H]2c3cc4c(cc3[C@@H](NCCCO)[C@H]3COC(=O)[C@H]23)OCO4)cc(OC)c1O , report its measured inhibition.
50

What measured inhibition goes with COc1cc([C@@H]2c3cc4c(cc3[C@H](O)[C@H]3COC(=O)[C@H]23)OCO4)cc(OC)c1O ?
25
